Assay: High Content Assay for Compounds that inhibit the Assembly of the Perinucleolar Compartment;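 further: plate controls were DMSO wells for no effect and camptothecin positive control wells for full effect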
Settings: PC3M PTB-GFP, PNC prevalence imaging, 16 h; at 10 µM
Out of some 140,000 compounds screened, about 4,300 (3.1%) were called active. Roughly 21% stayed inconclusive and do not appear here.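 How the source made its calls: active means readout at or below -70, meaning at least 70% loss of cells showing the perinucleolar compartment, a nuclear body marking cancer cells; inconclusive means readout between -30 and a set limit; inactive means the rest.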 Many of the other results were omitted from the sample, so actives are more common in it than they were.
Give one outcome, nothing more. List: class 1 = active, class 0 = inactive

For CCN1CCN(C(=O)C2(NC(=O)Nc3cccc(F)c3)CCCCC2)CC1 , what call appears in the results of this test?
class 1

What is the recorded call for this compound in the test? CONc1nc2nonc2nc1NOC
class 0

Given C/C(CC(=O)Nc1cccc(F)c1)=N\NC(=O)C(=O)NC1CCCCC1 , state the outcome it received in this test.
class 0

// return assay outcome for Cc1ccc(N(Cc2cc3ccccc3[nH]c2=O)C(=O)c2cccs2)cc1
class 0

State the result this test recorded for Cc1ccc(S(=O)(=O)N2CCCC2C(=O)OCc2nc3sc(C)c(C)c3c(=O)[nH]2)cc1 (stereo unspecified) .
class 0

Please let me know the test result on file for O=C(COC(=O)/C=C/c1ccc(S(=O)(=O)N2CCCCCC2)cc1)NCc1ccccc1Cl .
class 0

* * *

Test: High Content Assay for Compounds that inhibit the Assembly of the Perinucleolar Compartment;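 further: plate controls were DMSO wells for no effect and camptothecin positive control wells for full effect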
Conditions: PC3M PTB-GFP, PNC prevalence imaging, 16 h; at 10 µM; stronger effect = lower value
Screen size: about 140,000 compounds; about 4,300 (3.1%) were called active. About 21% were inconclusive and are not listed. The sample holds actives, similar compounds and a random draw of the others, so the mix is not that of the screen.
Exercise: state measured activity change (PNC), negative = inhibition for each of the molecules provided.
Provide the reading as a plain figure in %.

For the molecule Cc1nc(NCc2ccccc2)c(C(N)=O)c2c1COC(C)(C)C2 , what activity change (PNC), negative = inhibition is on record?
-122

Report activity change (PNC), negative = inhibition for O=C(CN1C(=O)/C(=C\c2ccc(C(F)(F)F)cc2)Sc2ccccc21)NCc1ccco1 please.
37.6

What does the data say about its activity change (PNC), negative = inhibition? Entry: O=C(c1cccnc1NCc1ccccc1)N1CCOCC1
40.9

# query: activity change (PNC), negative = inhibition of entry Cc1nc(NCCN)c(C#N)c2c1COC(C)(C)C2
32.5

Quick check: activity change (PNC), negative = inhibition of CCCCOC(=O)Cn1c(=N)n(CCN(CC)CC)c2ccccc21 ?
33.2

What value of activity change (PNC), negative = inhibition has been reported for the following molecule? COc1ccc(OC)c(NC(=O)Cn2c(=O)oc3ccccc32)c1
0.891

* * *

Experiment: High Content Assay for Compounds that inhibit the Assembly of the Perinucleolar Compartment;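 further: plate controls were DMSO wells for no effect and camptothecin positive control wells for full effect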
Details: PC3M PTB-GFP, PNC prevalence imaging, 16 h; at 10 µM; stronger effect = lower value
Hit rate of the full screen: of about 140,000 compounds, about 4,300 (3.1%) were called active. Roughly 21% stayed inconclusive and do not appear here. Only a selection was taken, and actives are over-represented in it overall.
readout.kind: activity change (PNC), negative = inhibition (%)
The reply should be a number in %, with the unit left off.

Which activity change (PNC), negative = inhibition is listed for N/C(=N\OS(=O)(=O)c1cccc([N+](=O)[O-])c1)c1ccncc1 ?
-108

I am curious: what activity change (PNC), negative = inhibition value has been reported for Nc1nc(NCCCN2CCOCC2)nc(Nc2ccccc2)c1[N+](=O)[O-] ?
-16.9

Consider the compound Cc1ccc(SCCC(=O)OCC(=O)Nc2ncc(Cl)cc2Cl)cc1 and give its measured activity change (PNC), negative = inhibition.
-2.97

Any idea what its activity change (PNC), negative = inhibition is? The compound is Cc1nc2sc(C(=O)c3ccccc3)c(N)c2c2c1CCCC2
7.19

Reported activity change (PNC), negative = inhibition, compound COc1ccccc1N(C(=O)Cn1nnc2ccccc21)C(C(=O)NCc1ccco1)c1ccc(C)o1 (stereo unspecified) : ____
20.9

Name the recorded activity change (PNC), negative = inhibition for O=[N+]([O-])c1cccc(S(=O)(=O)N2CCCCCC2)c1 .
-7.16

Which value of activity change (PNC), negative = inhibition has been reported for CO/N=C(\N)c1ccc([N+](=O)[O-])cc1 in the records?
28.8

Consider the compound C/C(=N\NC(=O)c1ccc(NS(=O)(=O)c2cccs2)cc1)c1ccc2ccccc2c1 and give its measured activity change (PNC), negative = inhibition.
3.73

Item under review: N#C/C(=C\c1ccccc1C(F)(F)F)C(=O)Nc1ccccc1F . Reported activity change (PNC), negative = inhibition?
-16.5

Endpoint output: activity change (PNC), negative = inhibition of NC(=O)c1sc2nc3c(c(-c4ccccc4)c2c1N)CCC3 . Value?
-100

What value of activity change (PNC), negative = inhibition has been recorded for this entry: CCCCOc1ccc(C(=O)NCC(=O)OCC(=O)N2CCN(S(=O)(=O)c3ccc(C)cc3C)CC2)cc1
24.8
